Provenance of the data: patent US20220242936A1

# MEASURED_TARGET: T1, Aβ1-42 polypeptide (human)
# T1 construct: Synthetic peptide; also called Aβ1-42 monomer; Aβ monomer
# T1 sequence (peptide, as listed by the source): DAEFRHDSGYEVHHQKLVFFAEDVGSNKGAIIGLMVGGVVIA
# ASSAY_SUMMARY: SPR, Biacore T200, antibody captured on Protein A chip, human Aβ antigen as analyte
MEASURED_ENDPOINT: Kd (nM)
One number for each entry, in nM.

// field: Kd; key: 066-4.26.14H5L2 (antibody, human IgG1, V domains shown, Humanized full-length antibody; human IgG1 heavy constant and human kappa light constant (vectors pGS003-hIgG1CH, pGS003-hIgKCL)) VH: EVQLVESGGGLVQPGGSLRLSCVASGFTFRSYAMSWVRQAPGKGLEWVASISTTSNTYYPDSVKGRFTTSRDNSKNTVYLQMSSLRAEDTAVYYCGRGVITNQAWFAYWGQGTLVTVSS VL: DIVLTQSPATLSVSPGERATLSCRASQSISNNLHWYQQKPGQAPRLLIKYASQSISGIPARFSGSGSGTDFTLTISSLQSEDFAVYFCQQSNSWPLTFGGGTKVEIKR ; value = 20.8

// field: Kd; key: 066-4.26.14H2L2 (antibody, human IgG1, V domains shown, Humanized full-length antibody; human IgG1 heavy constant and human kappa light constant (vectors pGS003-hIgG1CH, pGS003-hIgKCL)) VH: EVQLVESGGGLVKPGGSLRLSCAASGFTFRSYAMSWVRQTPEKRLEWVASISTTSNTYYPDSVKGRFTTSRDNAKNSVYLQMSSLRAEDTAVYYCGRGVITNQAWFAYWGQGTTVTVSS VL: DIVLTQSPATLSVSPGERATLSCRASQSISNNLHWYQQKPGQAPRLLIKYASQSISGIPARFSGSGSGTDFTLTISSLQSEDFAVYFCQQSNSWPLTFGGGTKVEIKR ; value = 22.5

// field: Kd; key: 066-4.26.14H5L1 (antibody, human IgG1, V domains shown, Humanized full-length antibody; human IgG1 heavy constant and human kappa light constant (vectors pGS003-hIgG1CH, pGS003-hIgKCL)) VH: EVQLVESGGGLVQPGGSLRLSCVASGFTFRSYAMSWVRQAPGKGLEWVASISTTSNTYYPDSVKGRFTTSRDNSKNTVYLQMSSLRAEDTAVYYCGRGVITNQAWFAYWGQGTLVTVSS VL: DIVLTQSPATLSVSPGERVTLSCRASQSISNNLHWYQQKSGQAPRLLIKYASQSISGIPSRFSGSGSGTDFTLTISSLQSEDFAVYFCQQSNSWPLTFGGGTQVEIKR ; value = 24.8

Switching to the query record.
// field: Kd; key: 066-4.26.14 mouse-human chimeric antibody (antibody, human IgG1, V domains shown) VH: EVKLVESGGGLVKPGGSLKLSCAASGFTFRSYAMSWVRQTPEKRLEWVASISTTSNTYYPDSVKGRFTTSRDNARNIVYLQMSSLRSDDTAMYYCGRGVITNQAWFAYWGQGTLVTVSA VL: DIVLTQSPATLSVTPGDSVSLSCRASQSISNNLHWYQQKSHESPRLLIKYASQSISGIPSRFSGSGSGTDFTLSVNNVGTEDFGMYFCQQSNSWPLTFGAGTKLELKR ; value = 12.6
